System: A549
Assay: In vitro cytotoxic activity was determined against lung carcinoma (A549) cell line
Assay type: functional
Conditions: Homo sapiens, read-out: ED50 (the source's name)
Result type: EC50 (µg/mL)
Answer with a number only, understood to be in µg/mL.

Solved entries (count: 3):
Compound structure | Reported measurement
CCCCCCOc1ccc2c(c1)[nH]c1c(C)nccc12 | 4.4
Cc1nccc2c1[nH]c1cc(OC(C)C)ccc12 | 17
CCn1c2cc(OC)ccc2c2ccnc(C)c21 | 4.2

Pending molecule:
Param readout= EC50; system= A549; entry= "Br.COc1cc2[nH]c3c(C)nccc3c2cc1Br" ; returns value.
3.9
